- procedure text: Aqueous solubility in water at room temperature sonicated for 30 mins followed by overnight incubation by HPLC analysis
- Type: physicochemical
measured attribute: solubility at 0.5 h (µg/mL)
Just the number please, in µg/mL, no unit attached.

Would you kindly share the measured solubility at 0.5 h for CCOc1cccc(-c2csc(NC(=O)c3ccc([N+](=O)[O-])o3)n2)c1 ?
0.34

Request: O=C(Nc1cccc(-c2csc(NC(=O)c3ccc([N+](=O)[O-])o3)n2)c1)c1ccccc1
1.27

Request: O=C(Nc1nc(-c2cccc(OC3CCCC3)c2)cs1)c1ccc([N+](=O)[O-])o1
0.027

Request: O=C(Nc1nc(-c2cccc(F)c2)cs1)c1ccc([N+](=O)[O-])o1
14.8

Request: O=C(Nc1nc(-c2cccc(NC(=O)C3CCCCC3)c2)cs1)c1ccc([N+](=O)[O-])o1
3.46

Request: O=C(Nc1nc(-c2cccc(NC(=O)C3CC3)c2)cs1)c1ccc([N+](=O)[O-])o1
0.47

Request: CC(C)Oc1cccc(-c2csc(NC(=O)c3ccc([N+](=O)[O-])o3)n2)c1
0.27

Request: O=C(Nc1nc(-c2cccc(NS(=O)(=O)Cc3ccccc3)c2)cs1)c1ccc([N+](=O)[O-])o1
0.48
